targetUnderTest: Carbonic anhydrase 13 (Homo sapiens)
Sequence (Q8N1Q1 whole entry): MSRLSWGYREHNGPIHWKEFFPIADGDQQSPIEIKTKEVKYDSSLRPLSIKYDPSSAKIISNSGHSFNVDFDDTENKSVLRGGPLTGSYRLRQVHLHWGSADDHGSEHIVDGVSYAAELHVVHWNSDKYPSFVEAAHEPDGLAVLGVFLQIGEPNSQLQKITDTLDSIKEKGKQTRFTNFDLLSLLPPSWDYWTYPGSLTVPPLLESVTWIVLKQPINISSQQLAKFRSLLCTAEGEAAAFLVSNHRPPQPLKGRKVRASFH
runDescription: Binding affinity to human recombinant carbonic anhydrase 13 by thermal shift assay
recordedEndpoint: Kd (nM)

I = CSc1nc(Cl)c(C#N)c(Nc2ccc(S(N)(=O)=O)cc2)n1
II = CSc1nc(Cl)c(C#N)c(NCc2ccc(S(N)(=O)=O)cc2)n1
III = CSc1nc(Cl)c(C=O)c(NCc2ccc(S(N)(=O)=O)cc2)n1
// smallest Kd at index 0, largest at the end Answer by naming the labels in the order asked.
III, I, II

A = NS(=O)(=O)c1ccc(Nc2ncnc(NCc3ccccc3)c2[N+](=O)[O-])cc1
B = COc1ncnc(NCc2ccc(S(N)(=O)=O)cc2)c1[N+](=O)[O-]
So which one has the bigger Kd here, A or B ? Kindly give the label for the entry you pick.
A

P = NS(=O)(=O)c1ccc(Nc2ncnc(Cl)c2[N+](=O)[O-])cc1
Q = NS(=O)(=O)c1ccc(CNc2ncnc(NCc3ccccc3)c2[N+](=O)[O-])cc1
So which one has the bigger Kd here, P or Q ? Kindly give the label for the entry you pick.
Q
(Q: 330 nM, P: 2 nM)

###

targetUnderTest: Carbonic anhydrase 7 (Homo sapiens)
runDescription: Binding affinity to human recombinant carbonic anhydrase 7 by thermal shift assay
pKd: −log10 of the molar value.
recordedEndpoint: pKd

Example entries begin here.
Find the recorded pKd belonging to NS(=O)(=O)C(F)(F)F [TRIFLUOROMETHANESULFONAMIDE] and report it.
7.44

Check CSc1nc(Cl)c(C#N)c(NCCc2ccc(S(N)(=O)=O)cc2)n1 too.
7.00

Check COc1ncnc(NCCc2ccc(S(N)(=O)=O)cc2)c1[N+](=O)[O-] too.
6.89

a = NS(=O)(=O)c1ccc(Nc2ncnc(NCc3ccccc3)c2[N+](=O)[O-])cc1
b = CSc1nc(Cl)c(C=O)c(Nc2ccc(S(N)(=O)=O)cc2)n1
Of a versus b , which is the one with smaller reported pKd? Kindly give the label for the entry you pick.
a
(a: 5.00, b: 5.40)

###

targetUnderTest: Carbonic anhydrase 7 (Homo sapiens, UniProt P43166)
Sequence (P43166 whole entry): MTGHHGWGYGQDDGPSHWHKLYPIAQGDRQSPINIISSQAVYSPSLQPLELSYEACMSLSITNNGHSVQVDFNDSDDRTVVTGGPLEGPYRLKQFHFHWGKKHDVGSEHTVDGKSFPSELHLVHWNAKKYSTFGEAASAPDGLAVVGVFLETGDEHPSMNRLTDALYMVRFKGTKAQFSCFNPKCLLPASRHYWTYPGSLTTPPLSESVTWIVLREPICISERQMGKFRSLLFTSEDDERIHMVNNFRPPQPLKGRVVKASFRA
runDescription: Binding affinity to human recombinant carbonic anhydrase 7 by isothermal titration calorimetry assay
recordedEndpoint: Kd (nM)

P = COc1ncnc(NCCc2ccc(S(N)(=O)=O)cc2)c1[N+](=O)[O-]
Q = CSc1nc(Cl)c(C=O)c(NCCc2ccc(S(N)(=O)=O)cc2)n1
Of P versus Q , which is the one with smaller reported Kd? Kindly give the label for the entry you pick.
P

1 = COc1ncnc(NCc2ccc(S(N)(=O)=O)cc2)c1[N+](=O)[O-]
2 = CSc1nc(Cl)c(C=O)c(NCc2ccc(S(N)(=O)=O)cc2)n1
Of 1 versus 2 , which is the one with smaller reported Kd? Kindly give the label for the entry you pick.
2

P = NS(=O)(=O)C(F)(F)F [TRIFLUOROMETHANESULFONAMIDE]
Q = CSc1nc(Cl)c(C#N)c(Nc2ccc(S(N)(=O)=O)cc2)n1
So which one has the bigger Kd here, P or Q ? Kindly give the label for the entry you pick.
Q
(Q: 1700 nM, P: 29 nM)

###

targetUnderTest: Carbonic anhydrase 1 (Homo sapiens, UniProt P00915)
Sequence (P00915 whole entry): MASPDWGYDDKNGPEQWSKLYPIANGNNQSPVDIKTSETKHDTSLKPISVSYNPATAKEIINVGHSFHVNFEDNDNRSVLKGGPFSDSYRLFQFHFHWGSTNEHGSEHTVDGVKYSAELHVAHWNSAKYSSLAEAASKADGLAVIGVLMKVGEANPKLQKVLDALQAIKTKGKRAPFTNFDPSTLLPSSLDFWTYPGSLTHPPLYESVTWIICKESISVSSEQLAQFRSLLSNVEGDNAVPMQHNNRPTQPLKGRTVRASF
runDescription: Binding affinity to human recombinant carbonic anhydrase 1 by thermal shift assay
pKd: −log10 of the molar value.
recordedEndpoint: pKd

Find the recorded pKd belonging to CSc1nc(Cl)c(C=O)c(NCCc2ccc(S(N)(=O)=O)cc2)n1 and report it.
7.00

Check NS(=O)(=O)c1ccc(Nc2ncnc(NCc3ccccc3)c2[N+](=O)[O-])cc1 too.
7.15

Check NS(=O)(=O)c1ccc(Nc2ncnc(Cl)c2[N+](=O)[O-])cc1 too.
6.89

Check COc1ncnc(NCCc2ccc(S(N)(=O)=O)cc2)c1[N+](=O)[O-] too.
7.17

Check CSc1nc(Cl)c(C#N)c(NCc2ccc(S(N)(=O)=O)cc2)n1 too.
7.00

Taken from ChEMBL document CHEMBL1268947.
